molecules and their reported IC50
# assayed.target: human IDO (IDO1-expressing HEK293 cells) (Homo sapiens)
# Construct: expressed in transfected cells
# Sequence (P14902 whole entry): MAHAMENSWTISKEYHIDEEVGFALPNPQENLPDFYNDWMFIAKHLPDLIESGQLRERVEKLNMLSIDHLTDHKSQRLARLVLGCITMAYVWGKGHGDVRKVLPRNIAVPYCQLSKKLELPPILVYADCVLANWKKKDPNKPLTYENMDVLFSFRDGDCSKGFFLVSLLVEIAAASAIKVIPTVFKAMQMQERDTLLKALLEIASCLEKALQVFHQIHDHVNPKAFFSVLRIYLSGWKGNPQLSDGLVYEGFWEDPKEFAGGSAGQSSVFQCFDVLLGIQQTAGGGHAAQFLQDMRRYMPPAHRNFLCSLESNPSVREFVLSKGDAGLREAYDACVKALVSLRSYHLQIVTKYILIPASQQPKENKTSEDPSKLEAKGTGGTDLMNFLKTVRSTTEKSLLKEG
# experimental.details: Cell based kynurenine assay, IDO1-expressing HEK293 cell clones
# measurement.setup: IDO1-expressing HEK293 cells, 24 hours incubation; geometric mean; read-out: HEK293 IDO1 Kynurenine GMean IC50 (μM) (Cellular Assay)

Previously resolved entries follow.
molecule: CC(C)S(=O)(=O)N1CC2CCC(C1)C2CC(O)c1cc(Cl)cc2cn[nH]c12 (centres unmarked) [Compound P-0291]
assayed.target: human IDO (IDO1-expressing HEK293 cells) (Homo sapiens)
IC50: 0.0001 to 10 µM
//
molecule: CN(C)C(C)(C)C(O)c1cc(Cl)cc2cn[nH]c12 (centres unmarked) [Compound P-0230]
assayed.target: human IDO (IDO1-expressing HEK293 cells) (Homo sapiens)
IC50: > 10 µM
//
molecule: CNC(=O)N1CCC(C(F)(F)C(O)c2cc(Cl)cc3cn[nH]c23)CC1 (centres unmarked) [Compound P-0142]
assayed.target: human IDO (IDO1-expressing HEK293 cells) (Homo sapiens)
IC50: 0.0001 to 10 µM

input: For the molecule COC(=O)N1CCC(C2(C(O)c3c(F)c(Cl)cc4cn[nH]c34)CC2)CC1 (centres unmarked) [Compound P-0160] , what IC50 is on record?
output: 0.0001 to 10 µM

input: And what about the molecule CC1(C(O)c2c3c(cc4cn[nH]c24)CC3)CCCCC1 (centres unmarked) [Compound P-0054] ?
output: 0.0001 to 10 µM

###

# assayed.target: human TDO (TDO-expressing HEK293 cells) (Homo sapiens, UniProt P48775)
# Construct: expressed in transfected cells
# Sequence (P48775 whole entry): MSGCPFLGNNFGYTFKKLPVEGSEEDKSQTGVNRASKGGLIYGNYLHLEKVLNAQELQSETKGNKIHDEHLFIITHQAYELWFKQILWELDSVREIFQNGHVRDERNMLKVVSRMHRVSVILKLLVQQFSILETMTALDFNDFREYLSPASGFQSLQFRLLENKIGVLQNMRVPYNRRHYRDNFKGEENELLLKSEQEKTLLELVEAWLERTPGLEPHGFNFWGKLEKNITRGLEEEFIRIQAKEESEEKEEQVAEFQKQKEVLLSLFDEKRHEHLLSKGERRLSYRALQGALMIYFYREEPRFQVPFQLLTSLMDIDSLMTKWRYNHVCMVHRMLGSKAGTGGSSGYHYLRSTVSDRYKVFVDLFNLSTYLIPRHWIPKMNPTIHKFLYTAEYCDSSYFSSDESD
# experimental.details: Cell based kynurenine assay, TDO-expressing HEK293 cell clones
# measurement.setup: TDO-expressing HEK293 cells, 24 hours incubation; geometric mean; read-out: HEK293 TDO Kynurenine GMean IC50 (μM) (Cellular Assay)
property.measured: IC50

These recorded examples may help you get a feel for the data.
molecule: OC(c1c(F)c(Cl)cc2cn[nH]c12)C1CC2CCC1C2 (centres unmarked) [Compound P-0258]
IC50: 0.0001 to 10 µM
--
molecule: CC(C)(C)C(O)c1cc(Cl)cc2cn[nH]c12 (centres unmarked) [Compound P-0212]
IC50: 0.0001 to 10 µM

input: Recorded IC50 of CC(C)(C)OC(=O)N1CCC(CC(O)c2cccc3cncn23)CC1 (centres unmarked) [Compound P-0085] , please.
output: > 10 µM

input: What would you report for CC(C)(C)OC(=O)N1CCC(C(C)(C)C(O)c2cc(Cl)cc3cn[nH]c23)CC1 (racemic) [Compound P-0163] ?
output: 0.0001 to 10 µM

input: Moving on to Cc1ccc(NC(=O)N2CCC(C(C)(C)C(O)c3cc(Cl)cc4cn[nH]c34)CC2)cc1 (centres unmarked) [Compound P-0397]
output: 0.0001 to 10 µM

input: And NC(=O)N1CCC(C2(C(O)c3c(F)c(Cl)cc4cn[nH]c34)CC2)CC1 (centres unmarked) [Compound P-0161] ?
output: 0.0001 to 10 µM

input: Continue with CC1(C(O)c2cc(Br)cc3cncn23)CCCCC1 (centres unmarked) [Compound P-0082]
output: 0.0001 to 10 µM
